Every entry's value here was drawn from patent US20170362330A1.

Target: T1, recombinant Fc fusion protein composed of the Sushi domain 1 and 2 of human CD46 (human, UniProt P15529 35-159)
T1 construct: domain: Sushi domain 1 and 2; Produced in HEK293 cells, purified by protein A; also called CD46-Fc fusion; recombinant CD46-Fc fusion protein; not shown: Fc part
T1 sequence (looked up): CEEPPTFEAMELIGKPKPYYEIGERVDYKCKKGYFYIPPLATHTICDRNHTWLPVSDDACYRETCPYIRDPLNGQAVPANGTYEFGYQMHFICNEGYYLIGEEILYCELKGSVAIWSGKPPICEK
Assay: phage and yeast display selection and FACS screening with recombinant CD46-Fc fusion
observed-property: binding result

>>> observed("3G7 (antibody, V domains shown, Human scFv from phage/yeast display, converted into full human IgG1) VH: QVQLQESGGGVVRPGGSLRLSCAASGFTFSDYYMSWIRQAPGKGLEWVSYISSSGSTIYYADSVKGRFTISRDNSKNTLYLQMNSLRAEDTAVYYCARDYGRIAAAGRHYWGQGTLVTVSS VL: SSELTQDPAVSVALGQTVRITCQGDSLRSYYASWYQQKPGQAPVPVIYGKNNRPSGIPDRFSGSSSGNTASLTITGAQAEDEADYYCNSRDSSSTHRGVFGGGTKLTVL")
"binds"
>>> observed("YS4 (antibody, V domains shown, Human scFv from phage/yeast display, converted into full human IgG1) VH: QVQLQESGGGLVQPGGSLRLSCAASGFTFSNYAMSWVRQAPGKGLEWVSTISGSGSSTFYVDSVKGRFTISRDNSKNTLYLQMNSLRAEDTAVYYCAQGLYSSGWANWFDPRGQGTLVTVSS VL: KIVLTQSPSSLSASVGDTVTIACRASRDIRNDLAWYQQKPGKAPKLLIYGASSLQSGVPSRFSGSGSGTEFILTISSLQPEDFATYYCHRLNSYPLTFGGGTKVDIK")
"binds"
>>> observed("UA8kappa (antibody, V domains shown, Human scFv from phage/yeast display, converted into full human IgG1; also called UASkappa) VH: EVQLVESGGGVVQPGRSLRLSCAASGFTFSSFGMHWVRRAPGKGLEWVAVISYDGSNQYYADSVKGRFTISRDNSKNTLYLQMNSLRAEDTAVYYCGSRPGGGYASGSTVAYWGQGTLVTVSS VL: NIQMTQSPSSLSASVGDRVTITCRAGQPISTYVNWYQHKPGKAPKLLIYGASNLQSGVPSRFSGGGSATDFTLTISSLQPEDFATYYCQQSYSSLLTFGDGTKVEIK")
"binds"
